Species on record: Rattus norvegicus
Test: Drug level in Sprague-Dawley rat assessed as retention time treated with saikosaponin a by LC-DAD-IT-TOF-MS analysis
Format: ADME, organism-based
Assay Readout: Retention_time (min)
Numbers only; they are read as min.

C[C@H]1O[C@@H](O[C@H]2CC[C@@]3(C)[C@@H](CC[C@]4(C)[C@@H]3C=C[C@]35OC[C@@]6(CCC(C)(C)C[C@H]63)[C@@H](O)C[C@]54C)[C@]2(C)CO)[C@H](O)[C@@H](O)[C@H]1O	45.5

Report Retention_time for C[C@H]1O[C@@H](O[C@H]2CC[C@@]3(C)[C@@H](CC[C@]4(C)[C@@H]3CC=C3[C@@H]5CC(C)(C)CC[C@]5(CO)[C@@H](O)C[C@]34C)[C@]2(C)CO)[C@H](O)[C@@H](O[C@@H]2O[C@H](CO)[C@@H](O)[C@H](O)[C@H]2O)[C@H]1O please.
22.9

---

Measured Retention_time by item
Species: Rattus norvegicus
Test: Drug level in Sprague-Dawley rat assessed as retention time treated with saikosaponin a by LC-DAD-IT-TOF-MS analysis
Assay type: ADME, organism-based
Numbers only; they are read as min.

The examples below pair each entry with its known result.
CC1(C)CC[C@]23CO[C@@]4(C=C[C@@H]5[C@@]6(C)CC[C@H](O)[C@@](C)(CO)[C@@H]6CC[C@@]5(C)[C@]4(C)C[C@@H]2O)[C@@H]3C1	48.3
CC1(C)CC[C@]23CO[C@@]4(C=C[C@@H]5[C@@]6(C)CCC(=O)[C@@](C)(CO)[C@@H]6CC[C@@]5(C)[C@]4(C)C[C@@H]2O)[C@@H]3C1	52.3
CC1(C)CC[C@]23CO[C@@]4(C=C[C@@H]5[C@@]6(C)C=C[C@H](O)[C@@](C)(CO)[C@@H]6CC[C@@]5(C)[C@]4(C)C[C@@H]2O)[C@@H]3C1	53.7

# input for lookup
Report Retention_time for CC1(C)CC[C@]23CO[C@@]4(C=C[C@@H]5[C@@]6(C)CC[C@H](O)[C@@](C)(CO)[C@@H]6CC[C@@]5(C)[C@]4(C(=O)O)C[C@@H]2O)[C@@H]3C1 please.
18.4
